These data points were gathered from paper PMC9059126.

- test-system: ATX (Rattus norvegicus)
- test-method-notes: Choline oxidase-coupled choline-release assay of LPC hydrolysis by ATX
- condition-details: LPC hydrolysis assay, 20 nM ATX
Rule for this label: YES means IC50 is less than 200 nM; NO means IC50 is at least 200 nM.

C[C@H](CCC(=O)NCCCOc1ccc(S(N)(=O)=O)cc1)[C@H]1CC[C@H]2C3[C@@H](O)C[C@@H]4C[C@H](O)CC[C@]4(C)[C@H]3CC[C@]12C (stereo partly shown) | NO
C[C@H](CCC(=O)N1CCC(Oc2ccc([B-](F)(F)F)cc2)CC1)[C@H]1CC[C@H]2C3[C@@H](O)C[C@@H]4C[C@H](O)CC[C@]4(C)[C@H]3CC[C@]12C.[K+] (stereo partly shown) | YES
C[C@H](CCC(=O)NCCOc1ccc(S(N)(=O)=O)cc1)[C@H]1CC[C@H]2C3[C@@H](O)C[C@@H]4C[C@H](O)CC[C@]4(C)[C@H]3CC[C@]12C (stereo partly shown) | NO
C[C@H](CCC(=O)NCCOc1cccc(B2OC(C)(C)C(C)(C)O2)c1)[C@H]1CC[C@H]2C3[C@@H](O)C[C@@H]4C[C@H](O)CC[C@]4(C)[C@H]3CC[C@]12C (stereo partly shown) | NO
C[C@H](CCC(=O)NCCCOc1ccc(B2OC(C)(C)C(C)(C)O2)cc1)[C@H]1CC[C@H]2C3[C@@H](O)C[C@@H]4C[C@H](O)CC[C@]4(C)[C@H]3CC[C@]12C (stereo partly shown) | YES
C[C@H](CCC(=O)NCCCOc1ccc([B-](F)(F)F)cc1)[C@H]1CC[C@H]2C3[C@@H](O)C[C@@H]4C[C@H](O)CC[C@]4(C)[C@H]3CC[C@]12C.[Na+] (stereo partly shown) | YES
C[C@H](CCC(=O)NCCCCOc1ccc(S(N)(=O)=O)cc1)[C@H]1CC[C@H]2C3[C@@H](O)C[C@@H]4C[C@H](O)CC[C@]4(C)[C@H]3CC[C@]12C (stereo partly shown) | NO
C[C@H](CCC(=O)N1CCC(Oc2ccc(B(O)O)cc2)CC1)[C@H]1CC[C@H]2C3[C@@H](O)C[C@@H]4C[C@H](O)CC[C@]4(C)[C@H]3CC[C@]12C (stereo partly shown) | YES
C[C@H](CCC(=O)N1CC[C@@H](Oc2ccc(B3OC(C)(C)C(C)(C)O3)cc2)C1)[C@H]1CC[C@H]2C3[C@@H](O)C[C@@H]4C[C@H](O)CC[C@]4(C)[C@H]3CC[C@]12C (stereo partly shown) | NO
